# Test protocol: Cytotoxicity against human HuH7 cells assessed as reduction in cell viability incubated for 48 hrs by cellTiter-Glo assay
# Format: cell-based, Huh-7
Quick reference: CC50 at 48 h of the listed items.
Please respond with the number in µM and leave the unit unwritten.

Below are worked cases with known answers.
INSERT INTO results (structure_string, recorded_metric, reported_measurement) VALUES
  ('N#Cc1cccc(-c2ccc3c(c2)c2cc(-c4cccc(C#N)c4)ccc2n3S(=O)(=O)c2cccc(C(=N)N)c2)c1', 'CC50 at 48 h', 3.35),
  ('N=C(N)c1cccc(Cn2c3ccc(Br)cc3c3cc(Br)ccc32)c1', 'CC50 at 48 h', 12.8),
  ('N=C(N)c1cccc(-c2ccc3c(c2)c2cc(Br)ccc2n3S(=O)(=O)c2cccc(C(=N)N)c2)c1', 'CC50 at 48 h', 35.7),
  ('Cn1c2ccc(Br)cc2c2cc(-c3cccc(C(=N)N)c3)ccc21', 'CC50 at 48 h', 6.57),
  ('COc1cccc(S(=O)(=O)n2c3ccc(-c4cccc(C#N)c4)cc3c3cc(-c4cccc(C(=N)N)c4)ccc32)c1', 'CC50 at 48 h', 37.9),
  ('Cn1c2ccc(-c3cccc(C#N)c3)cc2c2cc(-c3cccc(C(=N)N)c3)ccc21', 'CC50 at 48 h', 6.25);

Alright, here's another compound for you.
IN: For the compound COc1cccc(S(=O)(=O)n2c3ccc(Br)cc3c3cc(-c4cccc(C(=N)N)c4)ccc32)c1 , what CC50 at 48 h is on record?
OUT: 5.22

----------
Quick reference: pIC50 of the listed items.
# System: UniProtKB A0A024AXB9
# Test protocol: Inhibition of N-terminal linked Zika virus NS2B (45 to 96 residues) - NS3 (1 to 177 residues) protease domain expressed in Escherichia coli Bl21(DE3) using Bz-nKRR-AMC as substrate preincubated for 15 mins followed by substrate addition and measured by fluorescence based assay
pIC50 (log units): -log10 of the concentration in mol/L.

Below are worked cases with known answers.
INSERT INTO measurements (molecule, reported_measurement) VALUES
  ('N=C(N)c1cccc(-c2ccc3ccc(-c4cccc(C(=N)N)c4)cc3c2)c1', 4.31),
  ('Cn1c2ccc(-c3cccc(C(=N)N)c3)cc2c2cc(-c3cccc(C(=N)N)c3)ccc21', 5.44),
  ('N=C(N)c1cccc(NC(=O)Nc2cccc(C(=N)N)c2)c1 [AMICARBALIDE]', 4.32);

IN: # returns recorded pIC50 (system: UniProtKB A0A024AXB9) for N=C(N)c1cccc(-c2cccc(-c3cccc(C(=N)N)c3)c2)c1
OUT: 3.98

----------
# Test protocol: Cytotoxicity against human A549 cells assessed as reduction in cell viability incubated for 42 hrs by WST-8 assay
# Format: cell-based
Recorded metric: CC50 at 42 h (µM)
Please respond with the number in µM and leave the unit unwritten.

IN: For the compound O=C1C=C/C(=N/Nc2ccc([N+](=O)[O-])cc2Cl)C=C1C(=O)Nc1cccc(Cl)c1 , what CC50 at 42 h is on record?
OUT: 48.8

----------
# System: Nonstructural protein 3 (Zika virus)
# Test protocol: Inhibition of N-terminal His6-tagged Zika virus NS2B (45 to 96 residues) - NS3 (1 to 177 residues) protease domain expressed in Escherichia coli Bl21(DE3) using Bz-nKRR-AMC as substrate preincubated for 30 mins in presence of bZipro and measured for 60 sec over 10 mins by fluorescence based assay
Recorded metric: IC50 (nM)
Please respond with the number in nM and leave the unit unwritten.

IN: For the compound COc1ccc(S(=O)(=O)n2nc(OC(=O)c3cccc(-c4ccccc4Cl)c3)cc2N)cc1 , what IC50 is on record?
OUT: 100

----------
# Test protocol: Selectivity index, ratio of CC50 for cytotoxicity against human HuH7 cells to EC50 for antiviral activity against H/PF/2013 Zika virus infected in human HuH7 cells
# Format: toxicity, cell-based
# Cond: HuH7 cells, read-out: Ratio CC50/EC50
Criterion: selectivity ratio strictly less than 4. Met: yes (1). Not met: no (0).

INSERT INTO measurements (structure_string, classification) VALUES
  ('N=C(N)c1cccc(-c2ccc3c(c2)c2cc(Br)ccc2n3S(=O)(=O)c2cccc(C(=N)N)c2)c1', 'no (0)'),
  ('N=C(N)c1cccc(S(=O)(=O)n2c3ccc(Br)cc3c3cc(Br)ccc32)c1', 'no (0)'),
  ('Cn1c2ccc(-c3cccc(C(=N)N)c3)cc2c2cc(-c3cccc(C(=N)N)c3)ccc21', 'no (0)'),
  ('Cn1c2ccc(Br)cc2c2cc(-c3cccc(C(=N)N)c3)ccc21', 'no (0)'),
  ('COc1cccc(Cn2c3ccc(-c4cccc(C(=N)N)c4)cc3c3cc(-c4cccc(C(=N)N)c4)ccc32)c1', 'yes (1)'),
  ('N=C(N)c1cccc(Cn2c3ccc(Br)cc3c3cc(Br)ccc32)c1', 'yes (1)');

IN: # TODO verify selectivity ratio < 4 strictly for this molecule: COc1cccc(Cn2c3ccc(-c4cccc(C#N)c4)cc3c3cc(-c4cccc(C(=N)N)c4)ccc32)c1
OUT: yes (1)

----------
Quick reference: Selectivity Index of the listed items.
# Test protocol: Selectivity index, ratio of EC50 of antiviral activity against Zika virus infected in human HuH7 cells to IC50 of inhibition of N-terminal unlinked Zika virus NS2B (45 to 96 residues) - NS3 (1 to 177 residues) protease domain expressed in Escherichia coli Bl21(DE3)
# Format: toxicity

INSERT INTO results (structure_string, reported_measurement) VALUES
  ('COc1cccc(S(=O)(=O)n2c3ccc(-c4cccc(C#N)c4)cc3c3cc(-c4cccc(C(=N)N)c4)ccc32)c1', '1 to 10'),
  ('COc1cccc(Cn2c3ccc(-c4cccc(C(=N)N)c4)cc3c3cc(-c4cccc(C(=N)N)c4)ccc32)c1', '1 to 10'),
  ('N=C(N)c1cccc(-c2ccc3c(c2)c2cc(Br)ccc2n3S(=O)(=O)c2cccc(C(=N)N)c2)c1', '1 to 10'),
  ('Cn1c2ccc(-c3cccc(C(=N)N)c3)cc2c2cc(-c3cccc(C(=N)N)c3)ccc21', 3);

IN: For the compound COc1cccc(S(=O)(=O)n2c3ccc(-c4cccc(C(=N)N)c4)cc3c3cc(-c4cccc(C(=N)N)c4)ccc32)c1 , what Selectivity Index is on record?
OUT: 1 to 10

----------
# System: Nonstructural protein 3 (Zika virus, UniProt A0A024AXB9)
# Sequence (A0A024AXB9 whole entry, the tested form may be a part): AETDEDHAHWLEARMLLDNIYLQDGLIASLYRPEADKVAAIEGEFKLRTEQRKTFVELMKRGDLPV
# Test protocol: Inhibition of N-terminal unlinked Zika virus NS2B (45 to 96 residues) - NS3 (1 to 177 residues) protease domain expressed in Escherichia coli Bl21(DE3) using Bz-nKRR-AMC as substrate preincubated for 15 mins followed by substrate addition and measured by fluorescence based assay
Quick reference: pIC50 of the listed items.
pIC50 (log units): -log10 of the concentration in mol/L.

Below are worked cases with known answers.
INSERT INTO assay_data (structure_string, reported_measurement) VALUES
  ('N=C(N)c1cccc(-c2ccc3ccc(-c4cccc(C(=N)N)c4)cc3c2)c1', 4.49),
  ('Cn1c2ccc(-c3cccc(C(=N)N)c3)cc2c2cc(-c3cccc(C(=N)N)c3)ccc21', 6.28),
  ('COc1cccc(S(=O)(=O)n2c3ccc(-c4cccc(C#N)c4)cc3c3cc(-c4cccc(C(=N)N)c4)ccc32)c1', 6.09),
  ('Cn1c2ccc(Br)cc2c2cc(-c3cccc(C(=N)N)c3)ccc21', 4.86),
  ('N=C(N)c1cccc(-c2cccc(-c3cccc(C(=N)N)c3)c2)c1', 4.42),
  ('N=C(N)c1cccc(-c2ccc3c(c2)c2cc(Br)ccc2n3S(=O)(=O)c2cccc(C(=N)N)c2)c1', 5.04);

IN: For the compound COc1cccc(Cn2c3ccc(-c4cccc(C(=N)N)c4)cc3c3cc(-c4cccc(C(=N)N)c4)ccc32)c1 , what pIC50 is on record?
OUT: 5.76

IN: For the compound N=C(N)c1cccc(S(=O)(=O)n2c3ccc(Br)cc3c3cc(Br)ccc32)c1 , what pIC50 is on record?
OUT: 4.85

IN: For the compound COc1cccc(S(=O)(=O)n2c3ccc(Br)cc3c3cc(-c4cccc(C(=N)N)c4)ccc32)c1 , what pIC50 is on record?
OUT: 5.09

IN: For the compound N#Cc1cccc(-c2ccc3c(c2)c2cc(-c4cccc(C#N)c4)ccc2n3S(=O)(=O)c2cccc(C(=N)N)c2)c1 , what pIC50 is on record?
OUT: 5.46

----------
# Test protocol: Cytotoxicity against human HuH7 cells assessed as reduction in cell viability incubated for 48 hrs by cellTiter-Glo assay
# Type: cell-based, Huh-7
Quick reference: CC50 at 48 h of the listed items.
Please respond with the number in µM and leave the unit unwritten.

INSERT INTO results (structure_string, recorded_metric, reported_measurement) VALUES
  ('COc1cccc(Cn2c3ccc(-c4cccc(C#N)c4)cc3c3cc(-c4cccc(C(=N)N)c4)ccc32)c1', 'CC50 at 48 h', 3.3),
  ('COc1cccc(Cn2c3ccc(Br)cc3c3cc(-c4cccc(C(=N)N)c4)ccc32)c1', 'CC50 at 48 h', 5.3),
  ('COc1cccc(Cn2c3ccc(-c4cccc(C(=N)N)c4)cc3c3cc(-c4cccc(C(=N)N)c4)ccc32)c1', 'CC50 at 48 h', 22.7),
  ('N#Cc1cccc(-c2ccc3c(c2)c2cc(-c4cccc(C#N)c4)ccc2n3Cc2cccc(C(=N)N)c2)c1', 'CC50 at 48 h', 7.48),
  ('Cn1c2ccc(-c3cccc(C(=N)N)c3)cc2c2cc(-c3cccc(C(=N)N)c3)ccc21', 'CC50 at 48 h', 47.5);

IN: For the compound N=C(N)c1cccc(S(=O)(=O)n2c3ccc(Br)cc3c3cc(Br)ccc32)c1 , what CC50 at 48 h is on record?
OUT: 6.58

The reported numbers originate from ChEMBL document CHEMBL4406817.
